Assignment: determine reported Emax for the given compounds.
target: human GLP1R (hGLP1R) (Homo sapiens, UniProt P43220); assay: Human GLP1R β-arrestin recruitment assay (PathHunter); format: cell-based; parameters: insert synthesized by GeneArt 93-0164 (CHO-K1-EA parental cells); 93-0491 (pCMV PK vector bundle); conditions: relative to GLP1(7-36); CHO-hGLP1R-β-arrestin cells; read-out: Beta-Arrestin assay Emax (%)
Sequence (P43220 24-463): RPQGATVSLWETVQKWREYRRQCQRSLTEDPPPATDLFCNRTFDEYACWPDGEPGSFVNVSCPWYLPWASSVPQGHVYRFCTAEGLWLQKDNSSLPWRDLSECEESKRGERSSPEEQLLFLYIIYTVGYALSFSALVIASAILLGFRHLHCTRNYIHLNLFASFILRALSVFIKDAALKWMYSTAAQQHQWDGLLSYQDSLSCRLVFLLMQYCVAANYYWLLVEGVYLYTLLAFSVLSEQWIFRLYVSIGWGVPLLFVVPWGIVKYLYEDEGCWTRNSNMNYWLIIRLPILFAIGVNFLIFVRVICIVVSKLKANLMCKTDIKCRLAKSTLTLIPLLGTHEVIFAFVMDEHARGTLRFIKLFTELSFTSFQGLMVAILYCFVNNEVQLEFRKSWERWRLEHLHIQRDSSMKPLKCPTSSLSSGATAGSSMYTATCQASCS
One number for each entry, in %.

// solved cases for Emax follow
{"Smiles String": "Cc1c(-c2cc(C(=O)O)n(C)n2)nc(CN2CCC(c3cccc4c3O[C@@](C)(c3ccc(Cl)cc3F)O4)CC2)n1C[C@@H]1CCO1", "Numeric Result": 2}
{"Smiles String": "Cc1c(-c2ccc(C(=O)O)o2)nc(CN2CCC(c3cccc4c3O[C@@](C)(c3ccc(Cl)cc3F)O4)CC2)n1C[C@@H]1CCO1", "Numeric Result": 1}

Now let's try a different one.
Please report the recorded Emax for CCc1nc(CN2CCC(c3cccc4c3O[C@@](C)(c3ccc(Cl)cc3F)O4)CC2)n(C[C@@H]2CCO2)c1-c1nc(C(=O)O)co1 .
0

----------
target: human GLP1R (hGLP1R) (Homo sapiens, UniProt P43220); assay: Human GLP1R cAMP agonist assay (GloSensor cAMP Assay); type: cell-based; conditions: intracellular cAMP, HEK293-SNAP-hGLP1R-GloSensor cells, 12 min at rt
Assignment: determine reported EC50 for the given compounds.
Give bare numbers, in nM.

// solved cases for EC50 follow
{"Smiles String": "Cc1c(-c2cc(C(=O)O)n(C)n2)nc(CN2CCC(c3cccc4c3O[C@@](C)(c3ccc(Cl)cc3F)O4)CC2)n1C[C@@H]1CCO1", "Quantity Unit": "nM", "EC50": 0.754}
{"Smiles String": "Cc1c(-c2ccc(C(=O)O)o2)nc(CN2CCC(c3cccc4c3O[C@@](C)(c3ccc(Cl)cc3F)O4)CC2)n1C[C@@H]1CCO1", "Quantity Unit": "nM", "EC50": 0.102}
{"Smiles String": "Cc1nc(CN2CCC(c3cccc4c3O[C@@](C)(c3ccc(C#N)cc3F)O4)CC2)n(C[C@@H]2CCO2)c1-c1nc(C(=O)O)c(C)o1", "Quantity Unit": "nM", "EC50": 0.0428}

Value sought for every listed compound: EC50.
1. Cc1nc(CN2CCC(c3cccc4c3O[C@@](C)(c3ccc(Cl)cc3F)O4)CC2)n(C[C@H]2CCO2)c1-c1nc(C(=O)O)co1
2. C[C@]1(c2ccc(Cl)cc2F)Oc2cccc(C3CCN(Cc4nc(C(F)(F)F)c(-c5nc(C(=O)O)co5)n4C[C@@H]4CCO4)CC3)c2O1

1. 0.0484
2. 0.298

----------
target: human GLP1R (Homo sapiens); assay: Human GLP1R DERET internalization assay; type: cell-based; conditions: relative to GLP1(7-36); HEK293-SNAP-hGLP1R-GloSensor cells
Sequence (P43220 24-463): as above
Assignment: determine reported Emax for the given molecules.
Give bare numbers, in %.

// solved cases for Emax follow
{"Smiles String": "Cc1nc(CN2CCC(c3cccc4c3O[C@@](C)(c3ccc(Cl)cc3F)O4)CC2)n(C[C@@H]2CCO2)c1-c1nc(C(=O)O)c(C)o1", "Target Under Test": "human GLP1R (Homo sapiens)", "Quantity Unit": "%", "Emax": 8}
{"Smiles String": "Cc1cc(-c2nc(CN3CCC(c4cccc5c4O[C@@](C)(c4ccc(Cl)cc4F)O5)CC3)n(C[C@@H]3CCO3)c2C)oc1C(=O)O", "Target Under Test": "human GLP1R (Homo sapiens)", "Quantity Unit": "%", "Emax": 34}

Param readout= Emax; system= human GLP1R (Homo sapiens); entry= Cc1c(-c2nc(C(=O)O)co2)nc(CN2CCC(c3cccc4c3O[C@@](C)(c3ccc(Cl)cc3F)O4)CC2)n1C[C@@H]1CCO1 ; returns value.
42

----------
target: human GLP1R (Homo sapiens); assay: Human GLP1R DERET internalization assay; assay type: cell-based; conditions: relative to GLP1(7-36); HEK293-SNAP-hGLP1R-GloSensor cells
Assignment: determine reported Emax for the given compounds.

Value sought for every listed compound: Emax.
1. Cc1c(-c2coc(C(=O)O)n2)nc(CN2CCC(c3cccc4c3O[C@@](C)(c3ccc(Cl)cc3F)O4)CC2)n1C[C@@H]1CCO1
2. Cc1nc(CN2CCC(c3cccc4c3O[C@@](C)(c3ccc(Cl)cc3F)O4)CC2)n(C[C@@H]2CCO2)c1-c1coc(C(=O)O)n1
3. Cc1nc(CN2CCC(c3cccc4c3O[C@@](C)(c3ccc(Cl)cc3F)O4)CC2)n(C[C@@H]2CCO2)c1-c1nc(C(=O)O)co1
4. Cc1c(-c2nc(C(F)(F)F)c(C(=O)O)o2)nc(CN2CCC(c3cccc4c3O[C@@](C)(c3ccc(Cl)cc3F)O4)CC2)n1C[C@@H]1CCO1
5. CCc1nc(CN2CCC(c3cccc4c3O[C@@](C)(c3ccc(Cl)cc3F)O4)CC2)n(C[C@H]2CCO2)c1-c1nc(C(=O)O)co1
6. CCc1oc(-c2c(C)nc(CN3CCC(c4cccc5c4O[C@@](C)(c4ccc(Cl)cc4F)O5)CC3)n2C[C@@H]2CCO2)nc1C(=O)O

1: 86%; 2: 5%; 3: 11%; 4: 20%; 5: 51%; 6: 7%

Please report the recorded Emax for C[C@]1(c2ccc(Cl)cc2F)Oc2cccc(C3CCN(Cc4nc(C(F)(F)F)c(-c5nc(C(=O)O)co5)n4C[C@@H]4CCO4)CC3)c2O1 .
1%

----------
Assignment: determine reported Emax for the given compounds.
target: human GLP1R (hGLP1R) (Homo sapiens); experiment: Human GLP1R β-arrestin recruitment assay (PathHunter); format: cell-based; set-up: insert synthesized by GeneArt 93-0164 (CHO-K1-EA parental cells); 93-0491 (pCMV PK vector bundle); details: relative to GLP1(7-36); CHO-hGLP1R-β-arrestin cells; read-out: Beta-Arrestin assay Emax (%)
One number for each entry, in %.

// solved cases for Emax follow
{"Compound": "Cc1nc(CN2CCC(c3cccc4c3O[C@@](C)(c3ccc(Cl)cc3F)O4)CC2)n(C[C@@H]2CCO2)c1-c1cc(C(=O)O)n(C)n1 [Compound C-21]", "Numeric Result": 0}
{"Compound": "C[C@]1(c2ccc(Cl)cc2F)Oc2cccc(C3CCN(Cc4nc(C(F)(F)F)c(-c5nc(C(=O)O)co5)n4C[C@@H]4CCO4)CC3)c2O1 [Compound C-4]", "Numeric Result": 0}
{"Compound": "Cc1c(-c2nc(C(F)(F)F)c(C(=O)O)o2)nc(CN2CCC(c3cccc4c3O[C@@](C)(c3ccc(Cl)cc3F)O4)CC2)n1C[C@@H]1CCO1 [Compound C-14]", "Numeric Result": 0}

Value sought for every listed compound: Emax.
1. Cc1nc(CN2CCC(c3cccc4c3O[C@@](C)(c3ccc(Cl)cc3F)O4)CC2)n(C[C@@H]2CCO2)c1-c1nc(C(=O)O)co1 [Compound C-9]
2. CCc1oc(-c2c(C)nc(CN3CCC(c4cccc5c4O[C@@](C)(c4ccc(Cl)cc4F)O5)CC3)n2C[C@@H]2CCO2)nc1C(=O)O [Compound C-10]
3. Cc1oc(-c2nc(CN3CCC(c4cccc5c4O[C@@](C)(c4ccc(Cl)cc4F)O5)CC3)n(C[C@@H]3CCO3)c2C)nc1C(=O)O [Compound C-12]
4. Cc1nc(CN2CCC(c3cccc4c3O[C@@](C)(c3ccc(Cl)cc3F)O4)CC2)n(C[C@@H]2CCO2)c1-c1nc(C(=O)O)c(C)o1 [Compound C-1]

[0, 0, 10, 2]

----------
target: human GLP1R (Homo sapiens); assay: Human GLP1R DERET internalization assay; assay type: cell-based; conditions: relative to GLP1(7-36); HEK293-SNAP-hGLP1R-GloSensor cells
For each record, check the reported Emax: if it is below 20% write yes, else write no.

{"Smiles String": "Cc1c(-c2cnc(C(=O)O)o2)nc(CN2CCC(c3cccc4c3O[C@@](C)(c3ccc(Cl)cc3F)O4)CC2)n1C[C@@H]1CCO1", "Answer Label": "no"}
{"Smiles String": "Cc1nc(CN2CCC(c3cccc4c3O[C@@](C)(c3ccc(Cl)cc3F)O4)CC2)n(C[C@@H]2CCO2)c1-c1cc(C(=O)O)n(C)n1", "Answer Label": "yes"}
{"Smiles String": "Cc1c(-c2ccc(C(=O)O)o2)nc(CN2CCC(c3cccc4c3O[C@@](C)(c3ccc(Cl)cc3F)O4)CC2)n1C[C@@H]1CCO1", "Answer Label": "yes"}
{"Smiles String": "Cc1oc(-c2nc(CN3CCC(c4cccc5c4O[C@@](C)(c4ccc(Cl)cc4F)O5)CC3)n(C[C@@H]3CCO3)c2C)nc1C(=O)O", "Answer Label": "no"}
{"Smiles String": "CCc1nc(CN2CCC(c3cccc4c3O[C@@](C)(c3ccc(Cl)cc3F)O4)CC2)n(C[C@@H]2CCO2)c1-c1nc(C(=O)O)co1", "Answer Label": "yes"}

Continue with the next compound.
API: query returns whether the compound falls strictly under 20% in Emax. Query: Cc1c(-c2cc(C(=O)O)n(C)n2)nc(CN2CCC(c3cccc4c3O[C@@](C)(c3ccc(Cl)cc3F)O4)CC2)n1C[C@@H]1CCO1
yes
